system: Calf thymus DNA; experiment: Binding affinity to calf thymus DNA in BPE buffer assessed as change in melting temperature at drug/DNA base pair ratio 1; type: nucleic-acid assay; settings: Bos taurus
measure-name: ΔTm (°C)

| mol-smiles | recorded-value |
| --- | --- |
| COc1cc2ncnc(N(C)c3ccc(C)c(Cl)c3)c2cc1OC | 8.9 |
| COc1cc2ncnc(N(C)c3cc(Br)ccc3Br)c2cc1OC | 1.6 |
| COc1cc2ncnc(Nc3cc(Br)ccc3Br)c2cc1OC | 0.4 |
| COc1ccc(NC(=O)Nc2cccc(N(C)c3ncnc4cc(OC)c(OC)cc34)c2)cc1 | 6.8 |
| COc1cc2ncnc(Nc3cccc(F)c3)c2cc1OC | 0.2 |
| COc1cc2ncnc(N(C)c3cccc(NC(=O)NC4CCCCC4)c3)c2cc1OC | 5.7 |
| COc1cc2ncnc(N(C)c3ccc(F)c(Cl)c3)c2cc1OC | 6.1 |
| COc1cc2ncnc(Nc3ccc(C)c(F)c3)c2cc1OC | 0.2 |
| COc1cc2ncnc(N(C)c3cccc(NC(=O)Nc4ccccc4)c3)c2cc1OC | 6 |
| COc1cc2ncnc(N(C)c3cccc(C)c3)c2cc1OC | 7.1 |
| COc1cc2ncnc(N(C)c3cccc(Br)c3)c2cc1OC | 8.1 |
| COc1cc2ncnc(N(C)c3cccc(F)c3)c2cc1OC | 7.3 |

====

tested on: Nucleic Acid; assay: Binding affinity to poly(dA-dT)2 in BPE buffer assessed as change in melting temperature at drug/DNA base pair ratio 1; type: nucleic-acid assay
measure-name: ΔTm (°C)

| mol-smiles | recorded-value |
| --- | --- |
| COc1cc2ncnc(N(C)c3ccc(NC(=O)Nc4ccccc4)cc3)c2cc1OC | 0.6 |
| COc1cc2ncnc(Nc3cccc(F)c3)c2cc1OC | 0.4 |
| COc1cc2ncnc(Oc3ccc(NC(=O)Nc4ccccc4)cc3)c2cc1OC | 0.5 |

====

system: Nucleic Acid; test: Binding affinity to poly(dA-dT)2 in BPE buffer assessed as change in melting temperature at drug/DNA base pair ratio 1; format: nucleic-acid assay
Consider the reported ΔTm of an entry and match it to a band in LOW (below 0.5 °C), MEDIUM (0.5 °C to below 10 °C), HIGH (10 °C or more)

| mol-smiles | class |
| --- | --- |
| COc1cc2ncnc(N(C)c3cccc(C(F)(F)F)c3)c2cc1OC | MEDIUM |
| CN(c1ccc(F)c(Cl)c1)c1ncnc2cc3c(cc12)OCO3 | MEDIUM |
| COc1ccc(NC(=O)Nc2cccc(N(C)c3ncnc4cc(OC)c(OC)cc34)c2)cc1 | HIGH |
| Fc1ccc(Nc2ncnc3cc4c(cc23)OCO4)cc1Cl | LOW |
| CCN(CC)CCN(c1ccc(C)c(Br)c1)c1ncnc2cc(OC)c(OC)cc12 | HIGH |
| CCCN(c1ccc(C)c(Br)c1)c1ncnc2cc(OC)c(OC)cc12 | HIGH |
| COc1cc2ncnc(N(C)c3ccc(F)c(Cl)c3)c2cc1OC | HIGH |
| COc1ccc(NC(=O)Nc2cccc(Oc3ncnc4cc(OC)c(OC)cc34)c2)cc1 | LOW |
| COc1cc2ncnc(Nc3cccc(C)c3)c2cc1OC | LOW |
| CCN(c1ccc(C)c(Br)c1)c1ncnc2cc(OC)c(OC)cc12 | HIGH |
| COc1cc2ncnc(N(C)c3ccc(C)c(Cl)c3)c2cc1OC | HIGH |
| COc1cc2ncnc(N(c3ccc(C)c(Br)c3)C(C)C)c2cc1OC | HIGH |
| COc1cc2ncnc(N(C)c3cccc(Cl)c3)c2cc1OC | HIGH |
| COc1cc2ncnc(N(C)c3cc(Br)ccc3Br)c2cc1OC | MEDIUM |
| COc1cc2ncnc(Nc3cccc(Br)c3)c2cc1OC | LOW |
